Target: Tau
Assay: rat primary cortical neurons, FLIPR, 25 uM ASO
Bases are written 5' to 3'; sugars and linkages follow in the same order, as letters with counts (s phosphorothioate, o phosphodiester; PS: all linkages phosphorothioate). The collection does not say whether C is 5-methylated. l = locked nucleic acid (LNA); d = 2'-deoxy (DNA)
# calcium oscillation score listing for each entry below
PROPERTY: calcium oscillation score

In [3]: df
Out[3]:
                           primary_sequence  recorded_measurement
0  CTTTATTTCCAAATTCACTT (sugars l2 d16 l2, PS)      195 % of control
1     TCTTGTGATGCAGGA (sugars l3 d9 l3, PS)     91.8 % of control
2   TTCATCACCAAGTCCC (sugars l3 d11 l2, PS)     51.4 % of control
3  CCTCACTTTACACATTAAAT (sugars l4 d14 l2, PS)     64.1 % of control
4  CTCATTTTTCTCAAGCTC (sugars l3 d12 l3, PS)     44.8 % of control
5      CTAATCCTGTGCTT (sugars l3 d8 l3, PS)     26.1 % of control
